Answer each item with its documented melting point.

Ask: Please report the recorded melting point for Nc1ccc(Oc2cccc3cccnc23)cc1 .
Result: 203 to 205 °C

Ask: Next: Cc1cc(NC(=O)OC(C)(C)C)ccn1
Result: 167 to 169 °C

Ask: Next: CN1CC(=O)N(c2ccc([N+](=O)[O-])cc2)C1=O
Result: 161 to 163 °C

Ask: Next: CN(C)c1ccnc(N)c1
Result: 113 to 115 °C

Ask: Next: COc1ccc(C(=O)O)cc1S(=O)(=O)N1CCCc2ccccc21
Result: 211 to 213 °C

Ask: Next: CS(=O)(=O)c1ccc2c(c1)NCCO2
Result: 117 to 119 °C

Ask: Next: O=C(O)c1cccc(OCC(F)F)n1
Result: 94 to 96 °C

Ask: Next: COc1ccc2nc(C(=O)O)ccc2c1
Result: 184 to 186 °C

Ask: Next: COc1cc(C=O)c(Br)cc1O
Result: 175 to 177 °C

Ask: Next: CCOC(=O)c1cc(C23CC4CC(CC(C4)C2)C3)[nH]n1
Result: 192 to 194 °C

Ask: Next: O=C(O)c1cccnc1SC(F)(F)F
Result: 162 to 164 °C

Ask: Next: CS(=O)(=O)Cc1ccc(Cl)c(N)c1
Result: 137 to 139 °C

Ask: Next: CC(C)c1cc(=O)oc2cc(O)ccc12
Result: 77 to 79 °C

Ask: Next: Nc1nc(-c2ccc(F)cc2)cs1
Result: 111 to 113 °C

Ask: Next: NCCCNc1ccc(C(F)(F)F)cn1
Result: 48 to 50 °C

Ask: Next: O=C(CCl)Nc1ccc(O)cc1
Result: 145 to 147 °C

Ask: Next: CCN(CC)S(=O)(=O)c1ccc(N2CCN(C)CC2)c(N)c1
Result: 148 to 152 °C

Ask: Next: O=C1CN(Cc2ccccc2)CCN1
Result: 150 to 152 °C

Ask: Next: Cc1csc(C2(N)CCCC2)n1
Result: 59 to 61 °C

Ask: Next: Nc1ccccc1-c1[nH]nc2c1CCC2
Result: 128 to 130 °C

Ask: Next: COc1cc(C=O)ccc1OC(=O)c1ccc(F)cc1
Result: 100 to 102 °C

Ask: Next: O=C(O)CNC(=O)c1cc(-c2ccccc2)on1
Result: 208 to 210 °C

Ask: Next: Nc1ccc(NC(=O)C2CC2)cc1C(F)(F)F
Result: 145 to 147 °C

* * *

Answer each item with its documented melting point.

Ask: Please report the recorded melting point for O=C1CCNc2ccccc2N1 .
Result: 132 to 134 °C

Ask: Next: CCc1ccc(Nc2nnc(S)s2)cc1
Result: 151 to 153 °C

Ask: Next: Nc1nc(C2CC2)c(Cc2ccccc2Cl)s1
Result: 127 to 129 °C

Ask: Next: COc1ccccc1C(C)(C)C(=O)O
Result: 121 to 123 °C

Ask: Next: CC(CO)CC(C)(C)N (stereo not given)
Result: 64 to 66 °C

Ask: Next: ClCc1cc2ccccc2s1
Result: 49 to 51 °C

Ask: Next: O=C(O)CNC(=O)c1ccsc1
Result: 176 to 178 °C

Ask: Next: COc1ccc(CCNC(=O)C(C)Cl)cc1OC (stereo not given)
Result: 76 to 78 °C

Ask: Next: COCCOc1ccc(C(=O)O)cc1[N+](=O)[O-]
Result: 134 to 136 °C

Ask: Next: Cc1ccc(C(=O)Nc2ccc(O)cc2)cc1
Result: 208 to 210 °C

Ask: Next: Nc1ccc(Cl)c(CO)n1
Result: 147 to 149 °C

Ask: Next: O=C(O)CNS(=O)(=O)Cc1ccccc1
Result: 153 to 155 °C

Ask: Next: CC(C)(C)NS(=O)(=O)c1cc(N)c(F)cc1F
Result: 109 to 111 °C

Ask: Next: NC(=S)Nc1cccc2c1CCCC2
Result: 165 to 167 °C

Ask: Next: Clc1cnc(Cl)nc1
Result: 55 to 57 °C

Ask: Next: O=C1C=CC(=O)N1c1cccc2cnccc12
Result: 134 to 136 °C

Ask: Next: Cc1cccc(COc2cccc(CC(=O)O)c2)c1
Result: 91 to 93 °C

Ask: Next: O=C(O)c1occc1-c1ccc(F)cc1
Result: 147 to 149 °C

Ask: Next: COc1cccc2cc(C=O)oc12
Result: 45 to 47 °C

Ask: Next: Cc1nn(-c2ccccc2)c(C)c1CC(=O)O
Result: 110 to 112 °C

Ask: Next: O=c1[nH]c2ccc(S(=O)(=O)Cl)cc2[nH]c1=O
Result: 304 to 306 °C

Ask: Next: Nc1ccc(N2CCOCC2)c(F)c1
Result: 121 to 123 °C

Ask: Next: Nc1ccccc1S(=O)(=O)C(F)F
Result: 65 to 67 °C

Ask: Next: Cc1cc(N)n(-c2cc(Cl)ncn2)n1
Result: 171 to 173 °C

Ask: Next: CC(C)Cn1nc(C(=O)O)c2ccccc2c1=O
Result: 171 to 173 °C

Ask: Next: C=CC(=O)Nc1cccc(Br)c1
Result: 122 to 124 °C

Ask: Next: ClCc1cnc(Cl)s1
Result: 31 to 33 °C

Ask: Next: O=C(O)C1CSC(c2ccsc2)N1 (stereo not given)
Result: 144 to 146 °C

Ask: Next: Cc1c(C(=O)C(=O)O)sc2ccccc12
Result: 156 to 158 °C

Ask: Next: O=C(O)c1cccc(C2CCCOC2)c1 (stereo not given)
Result: 82 to 84 °C

Ask: Next: O=C1C=CC=NC1=C(O)Nc1ccncc1
Result: 164 to 166 °C

Ask: Next: ClCc1nc(Cl)c2c3c(sc2n1)CCCC3
Result: 89 to 91 °C

Ask: Next: CC1(C2CCCCC2)NC(=O)NC1=O (stereo not given)
Result: 113 to 115 °C

Ask: Next: COC(C)c1nc(CC(=O)O)cs1 (stereo not given)
Result: 154 to 156 °C

Ask: Next: Cc1n[nH]c(N)c1C#N
Result: 160 to 162 °C

* * *

measure: melting point

Ask: Please report the recorded melting point for CCC(=O)Nc1ccc(S(=O)(=O)Cl)cc1 .
Result: 109 to 111 °C

Ask: Next: Cn1nc(C(=O)NN)c2ccccc2c1=O
Result: 134 to 136 °C

Ask: Next: Cc1nc(O)ccc1I
Result: 209 to 211 °C

Ask: Next: O=C(O)CCOc1ccccc1[N+](=O)[O-]
Result: 121 to 123 °C

Ask: Next: CS(=O)(=O)Nc1ccc(F)cc1C(=O)O
Result: 204 to 206 °C

Ask: Next: CCOc1cc2c(cc1C=O)OC(C)C2 (centres undefined)
Result: 74 to 78 °C

Ask: Next: O=C(O)c1c(O)cnc2ccccc12
Result: 199 to 201 °C

Ask: Next: COc1ccc(Oc2ncccc2N)cc1
Result: 149 to 151 °C

Ask: Next: Nc1ncc(C(F)(F)F)cc1Cl
Result: 86 to 90 °C

Ask: Next: Cc1ccc(C2(C)CC(=O)NC2=O)cc1 (centres undefined)
Result: 69 to 71 °C

Ask: Next: COc1ccc(-c2nnc(S)[nH]2)c(OC)c1
Result: 250 to 252 °C

Ask: Next: O=C(O)c1ccc(Br)c(O)c1
Result: 219 to 221 °C

Ask: Next: CC(C)(C)Oc1ccc(N)cc1
Result: 60 to 62 °C

Ask: Next: NS(=O)(=O)c1cc(C(=O)O)ccc1F
Result: 236 to 238 °C

Ask: Next: Nc1cccc(NC(=O)c2cccc(C(F)(F)F)c2)c1
Result: 134 to 136 °C

Ask: Next: N#Cc1ccc(N2CCC(C(=O)O)CC2)nc1
Result: 174 to 176 °C

Ask: Next: Nc1cc(-c2cc(Br)ccc2Cl)[nH]n1
Result: 158 to 160 °C

Ask: Next: CC(C)(C)OC(=O)N1C2CCC1C(C(=O)O)C2 (centres undefined)
Result: 144 to 146 °C

Ask: Next: NC(=S)Nc1cccc2ncccc12
Result: 223 to 225 °C

Ask: Next: O=C(Nc1cc(F)ccc1C(=O)O)c1ccoc1
Result: 253 to 255 °C

Ask: Next: CC(C)c1ccc(S(=O)(=O)Cc2ccoc2C(=O)O)cc1
Result: 156 to 158 °C

Ask: Next: Cc1ccc(NC(=O)C2CSCN2)c(C)c1 (centres undefined)
Result: 89 to 91 °C

Ask: Next: CC(=O)c1ccc(S(=O)(=O)NCCCC(=O)O)cc1
Result: 140 to 142 °C

Ask: Next: N#CCSc1cccc(C(=O)O)c1
Result: 144 to 146 °C

The measurements presented in this section are drawn from a melting point compilation (Tetko et al.).
